- assayedTarget: human-KAT6A (MYST domain 507-778 aa) (Homo sapiens (Human), UniProt Q92794)
- Sequence (Q92794 507-778): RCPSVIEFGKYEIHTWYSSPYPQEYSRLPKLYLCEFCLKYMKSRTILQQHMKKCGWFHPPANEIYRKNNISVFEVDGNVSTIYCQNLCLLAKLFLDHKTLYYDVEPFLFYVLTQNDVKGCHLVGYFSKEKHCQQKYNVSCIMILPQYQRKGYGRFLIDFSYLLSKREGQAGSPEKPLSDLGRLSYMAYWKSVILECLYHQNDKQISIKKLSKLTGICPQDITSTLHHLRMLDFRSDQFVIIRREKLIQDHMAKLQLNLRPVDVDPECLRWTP
- experimentSummary: KAT6A biochemical assay (TR-FRET)
- testContext: TR-FRET; histone H4 peptide 200 nM, acetyl-CoA 600 nM; read-out: KAT6A IC50
- Protocol: TR-FRET based methods were used for assaying compounds of the present invention for KAT6A enzyme inhibitory activity. TR-FRET is a homogeneous proximity assay where Europium-labelled anti-acetyl lysine antibody binds to the acetylated substrate labelled with biotin, which in turn binds to streptavidin-labelled APC fluorescence acceptor. […] IC50 values of the compounds were determined by fitting the dose-response data to sigmoidal curve fitting equation using Graph pad prism software V9.
propertyMeasured: IC50 (µM)

molecule	IC50 [µM]
COc1ccc(C(C)(C)C)cc1S(=O)(=O)NC(=O)c1ccc(Cn2cccn2)cc1F	0.099
COc1cccc(OC)c1S(=O)(=O)NC(=O)c1ccc(Cn2cccn2)c(C2CC2)c1F	0.015
COc1cc(C(=O)NS(=O)(=O)c2c(OC)cccc2OC)cnc1Cn1cccn1	0.104
COc1cc(C(=O)N[S@@](=N)(=O)c2c(OC)cccc2OC)ccc1Cn1cccn1 [Compound 295a]	0.016
COc1cccc(OC)c1S(=O)(=O)NC(=O)c1ccc(Cn2cccn2)c(C)n1	0.071
COc1cc(Cn2cccn2)ccc1C(=O)NS(=O)(=O)c1c(OC)cccc1OC	0.247
COc1cc(C(=O)NS(=O)(=O)c2ccccc2OC(F)F)ccc1Cn1cccn1	0.051
CCc1ccc(OC)c(S(=O)(=O)NC(=O)c2ccc(Cn3cccn3)c(OC)c2)c1OC	0.013

[1] COc1cccc(OC)c1S(=N)(=O)NC(=O)c1ccc(Cn2cccn2)c(OC)n1 (stereo not drawn) [Compound 243]
[2] COc1nc(C(=O)NS(=O)(=O)c2cccc(C(C)(C)O)c2)ccc1Cn1cccn1
## Task Please tell me which of the two, 1 or 2 , has the higher reported IC50 value. Answer format: the label of the selected item.
## Result 2

* * *

- assayedTarget: human-KAT6A (MYST domain 507-778 aa) (Homo sapiens (Human))
- experimentSummary: KAT6A biochemical assay (TR-FRET)
- testContext: TR-FRET; histone H4 peptide 200 nM, acetyl-CoA 600 nM; read-out: KAT6A IC50
- Method: TR-FRET based methods were used for assaying compounds of the present invention for KAT6A enzyme inhibitory activity. TR-FRET is a homogeneous proximity assay where Europium-labelled anti-acetyl lysine antibody binds to the acetylated substrate labelled with biotin, which in turn binds to streptavidin-labelled APC fluorescence acceptor. […] IC50 values of the compounds were determined by fitting the dose-response data to sigmoidal curve fitting equation using Graph pad prism software V9.
propertyMeasured: IC50 (µM)

molecule	propertyMeasured	assayResult
COc1cc(F)c(S(=O)(=O)NC(=O)c2ccc(Cn3cccn3)c(OC)n2)c(OC)c1	IC50	0.008
COc1cc(C)c(S(=O)(=O)NC(=O)c2ccc(Cn3cccn3)c(OC)n2)c(OC)c1	IC50	0.011
COc1ccc(C(C)(C)CO)cc1S(=O)(=O)NC(=O)c1ccc(Cn2cccn2)c(OC)n1	IC50	0.01

[a] COc1cccc(OC)c1S(=O)(=O)NC(=O)c1ccc(Cn2cccn2)c(Br)c1F
[b] COc1cc(C(=O)NS(=O)(=O)c2cccc3c2OC(C)C3)ccc1Cn1cccn1 (centres unmarked)
## Task Please tell me which of the two, a or b , has the higher reported IC50 value. Answer format: the label of the selected item.
## Result b

* * *

- assayedTarget: human-KAT6A (MYST domain 507-778 aa) (Homo sapiens (Human), UniProt Q92794)
- experimentSummary: KAT6A biochemical assay (TR-FRET)
- testContext: TR-FRET; histone H4 peptide 200 nM, acetyl-CoA 600 nM; read-out: KAT6A IC50
pIC50: −log10 of the molar value.
propertyMeasured: pIC50

molecule	pIC50
COc1cc(Cn2cccn2)ccc1C(=O)NS(=O)(=O)c1ccc(C(C)(C)C)cc1OC	6.30
COc1cc(C(=O)NS(=O)(=O)c2c(OC)cccc2OC)ccc1Cn1cccn1	7.49
COc1cccc(F)c1[S@](=N)(=O)NC(=O)c1ccc(Cn2cccn2)c(OC)n1 [Compound 305a]	7.82
COc1cc(C(=O)NS(=O)(=O)c2ccc(C(F)(F)F)cc2OC)ccc1Cn1cccn1	7.36

[a] COc1nc(C(=O)N[S@@](=N)(=O)c2c(F)cccc2F)ccc1Cn1cccn1 [Compound 308a]
[b] COc1cc(OC)c(S(=O)(=O)NC(=O)c2ccc(Cn3cccn3)c(OC)c2)c(OC)c1
## Task Please tell me which of the two, a or b , has the higher reported pIC50 value. Answer format: the label of the selected item.
## Result b
(b: 8.05, a: 5.80)

* * *

- assayedTarget: human-KAT6A (MYST domain 507-778 aa) (Homo sapiens (Human), UniProt Q92794)
- experimentSummary: KAT6A biochemical assay (TR-FRET)
- testContext: TR-FRET; histone H4 peptide 200 nM, acetyl-CoA 600 nM; read-out: KAT6A IC50
propertyMeasured: IC50 (nM)

# annotated cases, reported IC50 shown
compound	unitInfo	IC50
CCc1c(OC)cc(OC)c(S(=O)(=O)NC(=O)c2ccc(Cn3cccn3)c(OC)n2)c1OC	nM	16
COc1ccc(C)c(OC)c1[S@@](=N)(=O)NC(=O)c1ccc(Cn2cccn2)c(OC)n1 [Compound 301b]	nM	17

[I] COc1cccc(OC(F)F)c1S(=O)(=O)NC(=O)c1ccc(Cn2cccn2)c(OC)n1
[II] COc1ccc(C(C)(C)C)cc1S(=O)(=O)NC(=O)c1ccc(Cn2cccn2)c(C#N)c1
## Task Please tell me which of the two, I or II , has the higher reported IC50 value. Answer format: the label of the selected item.
## Result II

* * *

- assayedTarget: human-KAT6A (MYST domain 507-778 aa) (Homo sapiens (Human), UniProt Q92794)
- experimentSummary: KAT6A biochemical assay (TR-FRET)
- testContext: TR-FRET; histone H4 peptide 200 nM, acetyl-CoA 600 nM; read-out: KAT6A IC50
pIC50: −log10 of the molar value.
propertyMeasured: pIC50

# annotated cases, reported pIC50 shown
molecule	propertyMeasured	assayResult
COc1cc(OC)c(S(=O)(=O)NC(=O)c2ccc(Cn3cccn3)c(OC)n2)cc1F	pIC50	7.85
COc1cc(OC)c([S@](=N)(=O)NC(=O)c2ccc(Cn3cccn3)c(OC)n2)c(OC)c1 [Compound 296a]	pIC50	7.80
COc1cc(C(=O)NS(=O)(=O)c2c(OC)cccc2OC)ccc1Oc1nccs1	pIC50	7.48
COc1cc(Cn2cccn2)ccc1C(=O)NS(=O)(=O)c1ccc(-n2cccn2)cc1OC	pIC50	5.83
COc1cc(C(=O)N[S@@](=N)(=O)c2c(OC)ccc(Cl)c2OC)ccc1Cn1cccn1 [Compound 302a]	pIC50	7.68

[a] COc1cccc(OC)c1S(=O)(=O)NC(=O)c1ccc(Cn2cccn2)c(OC)c1F
[b] COc1cccc(OC)c1S(=O)(=O)NC(=O)c1ccc(Cn2cccn2)c(C)c1
[c] COc1cc(Cn2cccn2)ccc1C(=O)NS(=O)(=O)c1ccccc1OC
## Task Falling order of pIC50, please. # respond with the labels, arranged in the requested order
## Result b, a, c
(b: 7.44, a: 6.94, c: 6.13)

[P] COc1ccc(C(C)(C)O)cc1S(=O)(=O)NC(=O)c1ccc(Cn2cccn2)c(OC)n1
[Q] COc1ccc(C(C)(C)C)cc1S(=O)(=O)NC(=O)c1ccc(Cn2cccn2)c(F)c1
[R] COc1cc(Br)cc(OC)c1S(=O)(=O)NC(=O)c1ccc(Cn2cccn2)c(OC)n1
## Task Sort ascending by pIC50. # respond with the labels, arranged in the requested order
## Result Q, P, R

[I] COc1nc(C(=O)NS(=O)(=O)c2cc(C(F)(F)F)cc3c2OCC3)ccc1Cn1cccn1
[II] CCc1ccc(OC)c(S(=O)(=O)NC(=O)c2cc(OC)c(Cn3cccn3)cn2)c1
## Task Given I and given II , which shows the smaller recorded pIC50? Answer format: the label of the selected item.
## Result II
(II: 7.19, I: 7.96)

Where these numbers come from: patent US20250136553A1
